Test Name: qHTS assay to identify small molecule agonists of the sonic hedgehog signaling (Shh) pathway - cell viability counter screen (AID 1259366); further: nearly all actives have a fitted effect of over 50% in size
Measurement Context: NIH/3T3 Gli1-Luc viability, CellTiter-Fluor, 24 h; series mostly up to 92.4 µM
Results filed as inconclusive are left out. The source made the active and inactive calls. The call rests on the fitted dose curve; in most records, active means well fitted cell-killing curve with a large enough effect in the repeat runs; inconclusive means weak or mixed curves, or effect the other way; inactive means flat fitted curve, though single readings scatter.
Would you mind answering with one of these outcomes? active, inactive

Below are worked cases with known answers.
Clc1ccc2nsnc2c1NC1=NCCN1 :: inactive
Oc1cccc(-c2c3nc(c(-c4cccc(O)c4)c4ccc([nH]4)c(-c4cccc(O)c4)c4nc(c(-c5cccc(O)c5)c5ccc2[nH]5)CC4)C=C3)c1 :: active
CCc1cc(Cc2cc(CC)c(N)c(CC)c2)cc(CC)c1N :: inactive

# input Look up the recorded call for CN(C)CCCOC1(Cc2ccccc2)CCCCCC1 in this test.
# output inactive

# input Record lookup: outcome of this test for Oc1ccc(N=Nc2ccccc2)cc1 ?
# output active

# input Tell me the recorded outcome of this test for Cc1cccc(N(C)C(=S)Oc2ccc3c(c2)C2CCC3C2)c1 (configuration not stated) .
# output inactive

# input Record request — test call for O=C(N/N=C/c1ccccc1O)c1ccncc1
# output inactive

FYI, the data here is from PubChem BioAssay (Tox21).
